Data provenance: paper PMC4336329

- target_under_test: human ether-à-go-go-related gene (hERG) potassium channel (human, UniProt Q12809)
- Sequence (Q12809 whole entry, looked up): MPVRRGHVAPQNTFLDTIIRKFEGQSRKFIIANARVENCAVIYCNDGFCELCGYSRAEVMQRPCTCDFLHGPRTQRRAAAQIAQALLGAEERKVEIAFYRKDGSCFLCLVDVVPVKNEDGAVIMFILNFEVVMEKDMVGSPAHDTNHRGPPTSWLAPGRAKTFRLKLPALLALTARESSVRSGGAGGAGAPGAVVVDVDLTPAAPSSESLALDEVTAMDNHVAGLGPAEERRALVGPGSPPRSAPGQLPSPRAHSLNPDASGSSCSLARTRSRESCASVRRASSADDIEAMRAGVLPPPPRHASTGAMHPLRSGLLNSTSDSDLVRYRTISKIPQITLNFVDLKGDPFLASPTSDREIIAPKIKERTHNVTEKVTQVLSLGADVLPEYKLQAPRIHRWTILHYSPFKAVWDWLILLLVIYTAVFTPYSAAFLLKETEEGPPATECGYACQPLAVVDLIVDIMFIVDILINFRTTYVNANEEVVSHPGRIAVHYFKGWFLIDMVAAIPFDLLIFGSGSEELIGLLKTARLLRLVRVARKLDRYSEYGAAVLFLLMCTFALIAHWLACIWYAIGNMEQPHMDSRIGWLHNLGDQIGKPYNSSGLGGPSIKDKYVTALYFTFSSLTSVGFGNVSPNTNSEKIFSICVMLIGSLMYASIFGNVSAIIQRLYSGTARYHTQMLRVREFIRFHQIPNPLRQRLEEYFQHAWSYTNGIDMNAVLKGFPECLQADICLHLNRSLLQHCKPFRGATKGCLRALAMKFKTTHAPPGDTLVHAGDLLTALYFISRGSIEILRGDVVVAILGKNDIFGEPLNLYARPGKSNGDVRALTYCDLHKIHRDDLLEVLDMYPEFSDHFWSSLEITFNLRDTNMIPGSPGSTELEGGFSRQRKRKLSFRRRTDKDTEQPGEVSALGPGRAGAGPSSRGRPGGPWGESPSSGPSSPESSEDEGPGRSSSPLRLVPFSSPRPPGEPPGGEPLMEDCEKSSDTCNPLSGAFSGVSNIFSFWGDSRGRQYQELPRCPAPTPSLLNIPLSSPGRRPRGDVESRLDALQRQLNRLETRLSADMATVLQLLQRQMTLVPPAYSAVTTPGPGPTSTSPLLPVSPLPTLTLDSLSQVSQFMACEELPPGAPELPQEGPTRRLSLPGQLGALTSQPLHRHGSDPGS
- protocol_summary: primary screen, population patch clamp on CHO cells stably expressing hERG; higher = less effect of the substance
The whole screen tested about 310,000 compounds, of which about 2,200 (0.71%) showed an effect of 50% or more. The effect is printed as a negative number. The sample as a whole holds a higher share of strong results than the screen did.
readout_name: hERG current change (%, negative = inhibition) at 1uM (%)
Answers are plain numbers, in %.

Consider the following illustrative entries.
[[record]]
compound = "COc1ccc(C2=NN(C(=O)CSc3nnc(C)c(=O)n3N)C(c3ccco3)C2)cc1 (stereo not drawn)"
test_result = -0.0705

[[record]]
compound = "Cc1ccc(N(CC(O)CN2CCCCC2)S(=O)(=O)c2ccccc2)cc1 (stereo not drawn)"
test_result = -68.7

[[record]]
compound = "Cc1ccc(N(CC(O)CN2CCCC2)S(=O)(=O)c2ccccc2)cc1 (stereo not drawn)"
test_result = -47.4


Go through the items and report each one's hERG current change (%, negative = inhibition) at 1uM.
1. Cc1cc(NC(=O)Cn2nc([N+](=O)[O-])c(Br)c2C)no1
2. COc1cc(NC(=O)c2sc3nc(C)nc(N4CCOCC4)c3c2C)cc(OC)c1OC
3. O=C(O)c1ccc2c(c1)C(=O)N(c1cc([N+](=O)[O-])ccn1)C2=O
4. Cc1ccnc(SCc2cc(=O)c(OC(=O)c3ccccc3)co2)n1
5. COc1ccc(NC(=S)N2CCNC(=O)C2CC(=O)Nc2cccc(Cl)c2C)cc1 (stereo not drawn)
6. Cc1nc(NC(=O)CC(C)C)sc1-c1csc(Nc2ccc(Cl)cc2)n1

1: 15.4; 2: 30.1; 3: 10.8; 4: 15; 5: -5.98; 6: 12.5

----------
Provide the reported hERG current change (%, negative = inhibition) at 1uM of each item.
- target_under_test: human ether-à-go-go-related gene (hERG) potassium channel (human)
- protocol_summary: primary screen, population patch clamp on CHO cells stably expressing hERG; higher = less effect of the substance
Screen size: about 310,000 compounds; about 2,200 (0.71%) showed an effect of 50% or more. Effects have a minus sign here. The full list was thinned out, with strong results kept by preference.
One number for each entry, in %.

Please give hERG current change (%, negative = inhibition) at 1uM for each item listed below.
1. S=C(N/N=C/c1cccc2ccccc12)Nc1cccc(Cl)c1
2. OCC1(CCc2ccccc2)CCN(Cc2ccc3nsnc3c2)CC1
3. CC(=O)c1ccc(-n2c(-c3cc(-c4ccsc4)n[nH]3)n[nH]c2=S)cc1
4. NC(=O)NC(c1ccc(Cl)cc1)c1ccccc1Cl (stereo not shown)

11.3
-69.1
7.9
7.43

Consider the following items and state reported hERG current change (%, negative = inhibition) at 1uM for each.
1. O=C(NCCc1nc2ccccc2[nH]1)/C(=C/c1ccc2c(c1)OCO2)NC(=O)c1ccc(Cl)cc1Cl
2. C[C@H](NC(=O)c1nc[nH]c1C(=O)N[C@@H](CCCCNC(=O)OC(C)(C)C)C(=O)OC(C)(C)C)c1ccccc1
3. Cc1ccc2c(c1)N(C(=O)CCC(=O)NCc1cccnc1)CCO2
4. O=C(CCC(=O)c1cccs1)OCc1nc2ccccc2s1
5. COc1ccc(S(=O)(=O)NCC2CCCN(Cc3ccc(O)cc3)C2)cc1 (stereo not shown)
6. CCOC(=O)Cc1nc2ccccc2o1

[-73.9, 19.1, -4.63, 12.6, -12.2, 9.03]
